Attribution: patent US9868705B2

experimentalTarget: T877A (LNCaP) AR (Homo sapiens, UniProt P10275, T878A)
Construct: expressed in transfected cells; host or cells: CV-1
Sequence (P10275 1-920 T878A): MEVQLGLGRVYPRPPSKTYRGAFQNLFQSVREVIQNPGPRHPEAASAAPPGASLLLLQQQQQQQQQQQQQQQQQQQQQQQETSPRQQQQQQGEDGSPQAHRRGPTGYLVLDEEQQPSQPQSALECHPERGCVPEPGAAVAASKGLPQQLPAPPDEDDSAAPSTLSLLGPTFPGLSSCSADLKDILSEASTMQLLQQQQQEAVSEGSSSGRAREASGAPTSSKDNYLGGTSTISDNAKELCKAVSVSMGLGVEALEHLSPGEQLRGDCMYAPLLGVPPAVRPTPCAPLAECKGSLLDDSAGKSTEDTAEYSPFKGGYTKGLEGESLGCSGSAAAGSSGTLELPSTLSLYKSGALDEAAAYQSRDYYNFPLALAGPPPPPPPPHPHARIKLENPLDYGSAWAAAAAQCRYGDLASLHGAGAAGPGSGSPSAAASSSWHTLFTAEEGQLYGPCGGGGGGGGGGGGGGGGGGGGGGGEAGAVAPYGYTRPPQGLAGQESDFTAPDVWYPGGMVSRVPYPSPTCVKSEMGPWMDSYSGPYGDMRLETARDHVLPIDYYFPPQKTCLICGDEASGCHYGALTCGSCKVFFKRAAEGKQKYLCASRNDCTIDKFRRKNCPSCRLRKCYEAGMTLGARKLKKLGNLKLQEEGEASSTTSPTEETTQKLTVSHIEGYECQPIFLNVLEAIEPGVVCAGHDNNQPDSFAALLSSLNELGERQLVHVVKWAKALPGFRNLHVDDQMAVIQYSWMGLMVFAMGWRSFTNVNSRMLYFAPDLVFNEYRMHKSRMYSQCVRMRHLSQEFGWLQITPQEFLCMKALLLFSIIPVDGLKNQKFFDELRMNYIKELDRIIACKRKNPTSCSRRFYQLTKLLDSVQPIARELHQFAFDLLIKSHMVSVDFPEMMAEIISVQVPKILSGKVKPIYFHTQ
procedureSummary: MMTV-luciferase transcription assay in CV-1 cells, T877A AR
Type: cell-based
condition: MMTV transcription assay in CV-1 cells, compared with 1
observedProperty: AR antagonism, potency in words (structure-activity discussion)

COc1cncc([C@@H]2[C@@H](c3ccccc3)[C@@H](c3ccccc3)[C@@H]2c2cncc(OC)n2)n1 [DPM-15]: decreased activity
COc1cc([C@H]2[C@H](c3ccc(Br)cc3)[C@@H](c3cc(OC)nc(OC)n3)[C@H]2c2ccc(Br)cc2)nc(OC)n1 [DMP-10]: inactive
COc1cncc([C@@H]2[C@@H](c3ccccc3)[C@@H](c3ccccc3)[C@@H]2c2cncc(OC)n2)n1 [DPM-16]: decreased activity
Clc1cc([C@H]2[C@H](c3ccc(-c4ccccc4)cc3)[C@H](c3cc(Cl)nc(Cl)n3)[C@H]2c2ccc(-c3ccccc3)cc2)nc(Cl)n1 [DPM-27]: inactive
